Each entry below carries its recorded Veronica persica (efficacy in %).
System: Veronica persica
Assay Info: Post-emergence herbicidal action
Format: in vivo
Test Settings: application rate 5 g/ha

>  <Compound>
Cn1c(C(F)(F)F)cc(=O)n(-c2cc(Sc3cccnc3SCC(=O)OCC3CCCO3)c(Cl)cc2F)c1=O (stereo not drawn)

>  <Veronica persica (efficacy in %)>
90

$$$$
>  <Compound>
Cn1c(C(F)(F)F)cc(=O)n(-c2cc(Oc3cccnc3OCC(=O)OCC[Si](C)(C)C)c(Cl)cc2F)c1=O

>  <Veronica persica (efficacy in %)>
100

$$$$
>  <Compound>
COCCOC(=O)COc1ncccc1Oc1cc(-n2c(=O)cc(C(F)(F)F)n(C)c2=O)c(F)cc1Cl

>  <Veronica persica (efficacy in %)>
100

$$$$
>  <Compound>
COCCCOC(=O)COc1ncccc1Oc1cc(-n2c(=O)cc(C(F)(F)F)n(C)c2=O)c(F)cc1Cl

>  <Veronica persica (efficacy in %)>
100

$$$$
>  <Compound>
COCCOCCOC(=O)COc1ncccc1Oc1cc(-n2c(=O)cc(C(F)(F)F)n(C)c2=O)c(F)cc1Cl

>  <Veronica persica (efficacy in %)>
100

$$$$
>  <Compound>
CC(C#N)COC(=O)COc1ncccc1Oc1cc(-n2c(=O)cc(C(F)(F)F)n(C)c2=O)c(F)cc1Cl (stereo not drawn)

>  <Veronica persica (efficacy in %)>
100

$$$$
>  <Compound>
COCCOC(=O)COc1ncccc1Sc1cc(-n2c(=O)cc(C(F)(F)F)n(C)c2=O)c(F)cc1Cl

>  <Veronica persica (efficacy in %)>
100

$$$$
>  <Compound>
Cn1c(C(F)(F)F)cc(=O)n(-c2cc(Oc3cccnc3OCC(=O)OCc3cccnn3)c(Cl)cc2F)c1=O

>  <Veronica persica (efficacy in %)>
100

$$$$
>  <Compound>
COCCCOC(=O)CSc1ncccc1Sc1cc(-n2c(=O)cc(C(F)(F)F)n(C)c2=O)c(F)cc1Cl

>  <Veronica persica (efficacy in %)>
80

$$$$
